pKd overview
# TARGET_OF_ASSAY: T1, biotinylated Aβ1-40 peptide (biotinylated (N-biotinylated in Example 7))
# T1 construct: captured on streptavidin (SA) chip; also called Biotinylated Aβ peptide 1-40; Aβ1-40 on SA chip
# PROTOCOL_TEXT: SPR, Fab over Aβ1-40 on SA chip; KD=koff/kon
In plain terms, pKd is the concentration in mol/L turned into minus its base-10 logarithm.

9TL variant M14 Fab (Fab, V domains shown, Fab; human IgG2 CH1 and kappa CL) VH: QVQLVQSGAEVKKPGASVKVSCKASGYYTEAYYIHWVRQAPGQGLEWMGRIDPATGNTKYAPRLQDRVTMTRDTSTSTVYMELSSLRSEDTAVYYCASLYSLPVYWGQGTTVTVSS VL: DVVMTQSPLSLPVTLGQPASISCKSSQSLLYSDAKTYLNWFQQRPGQSPRRLIYQISRLDPGVPDRFSGSGSGTDFTLKISRVEAEDVGVYYCLQGTLYPVLFGQGTRLEIKR | 8.30
9TL variant M46 Fab (Fab, V domains shown, Fab; human IgG2 CH1 and kappa CL) VH: QVQLVQSGAEVKKPGASVKVSCKASGYYTEAYYIHWVRQAPGQGLEWMGRIDPATGNTKYAPRLQDRVTMTRDTSTSTVYMELSSLRSEDTAVYYCASLYSLPCYWGQGTTVTVSS VL: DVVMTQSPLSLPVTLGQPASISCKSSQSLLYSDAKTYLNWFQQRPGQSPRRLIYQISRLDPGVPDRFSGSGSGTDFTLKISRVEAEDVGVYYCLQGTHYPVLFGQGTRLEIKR | 7.20

I have this binder here, 9TL variant M10 Fab (Fab, V domains shown, Fab; human IgG2 CH1 and kappa CL; same printed substitution as M7) VH: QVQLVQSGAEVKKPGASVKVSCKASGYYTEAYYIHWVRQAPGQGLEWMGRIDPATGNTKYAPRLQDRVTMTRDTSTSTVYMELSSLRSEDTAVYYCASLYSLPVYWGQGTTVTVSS VL: DVVMTQSPLSLPVTLGQPASISCKSSQSLLYSDAKTYLNWFQQRPGQSPRRLIYQISRLDPGVPDRFSGSGSGTDFTLKISRVEAEDVGVYYCSQGTHYPVLFGQGTRLEIKR , and I need its recorded pKd.
7.58

This collection of values is drawn from patent US20090022728A1.
